Please provide measured LC retention time for the entries that follow.
test: RP, Waters CORTECS T3, 100 × 2.1 mm, 2.7 µm, 0.3 mL/min, estimated dead time 0.73 min; A: water + 0.1% formic acid, pH 3; B: methanol + 0.1% formic acid, pH 3; gradient (min/%B) 0/0 5/0 25/100 30/100 30.1/0 35/0; settings: stereoisomer not certain
Give bare numbers, in min.

Give measured LC retention time for every item shown.
1. CC(C)=CCNc1ncnc2nc[nH]c12
2. NC(=O)c1cccnc1 [NICOTINAMIDE]
3. Cc1cc2nc[nH]c2cc1C
4. Nc1nc2ncc(CNc3ccc(C(=O)NC(CCC(=O)O)C(=O)O)cc3)nc2c(=O)[nH]1 (stereo unspecified)
5. NC(N)=NCCCC(=O)O [4-GUANIDINOBUTANOATE]
6. CCCCCCSCC(NC(=O)CCC(N)C(=O)O)C(=O)NCC(=O)O (stereo unspecified)

# output
1: 12.7; 2: 1.63; 3: 11.4; 4: 11.3; 5: 0.91; 6: 16.2

====

assay: RP, Waters ACQUITY UPLC BEH C18, 100 × 2.1 mm, 1.7 µm, 0.1 mL/min, estimated dead time 2.2 min; A: water + 0.1% formic acid, pH 3; B: methanol + 0.1% formic acid, pH 3; gradient (min/%B) 0/5 5/5 25/100 30/100 30.1/5 35/5; settings: stereoisomer not certain
endpoint: LC retention time (min)
One number for each entry, in min.

Previously resolved entries follow.
[
  {
    "compound": "CCC=CCC1C(=O)CCC1CC(=O)OC (centres undefined) [METHYL JASMONATE]",
    "endpoint": "LC retention time",
    "dataValue": 23.2
  },
  {
    "compound": "O=C(O)CCCCC1SCC2NC(=O)NC21 (centres undefined) [BIOTIN]",
    "endpoint": "LC retention time",
    "dataValue": 15.2
  }
]

Please give LC retention time for each item listed below.
1. N[C@@H](Cc1ccc(O)c([N+](=O)[O-])c1)C(=O)O [3-NITRO-L-TYROSINE]
2. CC1NC(=O)NC1CCCCCC(=O)O (centres undefined) [DETHIOBIOTIN]
3. O=c1[nH]c(=O)c2nccnc2[nH]1 [2,4-DIHYDROXYPTERIDINE]
4. CC(=O)NC(CCCCN)C(=O)O [N-ALPHA-ACETYL-L-LYSINE]
5. NC(=O)[C@@H](N)Cc1c[nH]c2ccccc12 [L-TRYPTOPHANAMIDE]
6. CC1NCCc2cc(O)c(O)cc21 (centres undefined) [1-METHYL-6,7-DIHYDROXY-1,2,3,4-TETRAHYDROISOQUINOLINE]
7. NC(Cc1cc(I)c(Oc2cc(I)c(O)c(I)c2)c(I)c1)C(=O)O (centres undefined) [THYROXINE]

# output
10.8
16.9
5.19
2.69
11.2
2.74
22.7

====

test: RP, Waters CORTECS T3, 100 × 2.1 mm, 2.7 µm, 0.2 mL/min, estimated dead time 1.1 min; A: water + 0.045% formic acid + 0.11% ammonium hydroxide, pH 7; B: methanol; gradient (min/%B) 0/5 5/5 25/95 25.1/100 35/100 35.1/5 45/5; conditions: stereoisomer not certain
Give measured LC retention time for each item. Keep answers brief.
Answers are plain numbers, in min.

[
  {
    "molecule": "Cc1cc2nc[nH]c2cc1C",
    "LC retention time [min]": 16.5
  },
  {
    "molecule": "c1ccc2ncccc2c1",
    "LC retention time [min]": 11.7
  },
  {
    "molecule": "CSc1ncnc2nc[nH]c12",
    "LC retention time [min]": 11.7
  },
  {
    "molecule": "NC(=O)c1cccnc1 [NICOTINAMIDE]",
    "LC retention time [min]": 3.68
  }
]

Need LC retention time for each of these molecules.
1. CC(=O)NCCc1c[nH]c2ccc(O)cc12
2. O=CCc1c[nH]c2ccccc12

# output
10.7
10.7

====

Kindly state log10(LC retention time) for each of the entries shown.
test: RP, Waters CORTECS T3, 100 × 2.1 mm, 2.7 µm, 0.15 mL/min, estimated dead time 1.5 min; A: water + 0.1% formic acid, pH 3; B: methanol + 0.1% formic acid, pH 3; gradient (min/%B) 0/0 1/0 6/5 30/100 35/100 35.1/0 40/0; details: stereoisomer not certain
Note: values are log10 of LC retention time expressed in min.

[
  {
    "molecule": "N[C@@H](CCOC(=O)CCC(=O)O)C(=O)O [O-SUCCINYL-L-HOMOSERINE]",
    "endpoint": "log10(LC retention time)",
    "dataValue": 0.26
  },
  {
    "molecule": "C=Cc1c(C)c2cc3[nH]c(cc4nc(cc5nc(cc1[nH]2)C(C)=C5CCC(=O)O)C(CCC(=O)O)=C4C)c(C)c3C=C [PROTOPORPHYRIN]",
    "endpoint": "log10(LC retention time)",
    "dataValue": 1.50
  }
]

Dear colleague, could you send me log10(LC retention time) for each of the items below? Thanks.
1. NC(=O)Cc1c[nH]c2ccccc12 [INDOLE-3-ACETAMIDE]
2. NC(N)=NCCCC(=O)O [4-GUANIDINOBUTANOATE]
3. N[C@@H](Cc1ccc(O)c([N+](=O)[O-])c1)C(=O)O [3-NITRO-L-TYROSINE]
4. CC(=O)NCCCCN [N-ACETYLPUTRESCINE]

# output
1.16
0.26
1.02
0.26

====

test: RP, Waters CORTECS T3, 100 × 2.1 mm, 2.7 µm, 0.1 mL/min, estimated dead time 2.2 min; A: water + 0.1% formic acid, pH 3; B: methanol + 0.1% formic acid, pH 3; gradient (min/%B) 0/5 5/5 25/95 25.1/100 35/100 35.1/5 45/5; conditions: stereoisomer not certain
Class 1: LC retention time at least 7 min. Class 0: LC retention time below 7 min.

Solved entries:
[
  {
    "compound": "N[C@@H](Cc1cc(I)c(Oc2ccc(O)cc2)c(I)c1)C(=O)O [3,5-DIIODO-L-THYRONINE]",
    "labelValue": 1
  },
  {
    "compound": "CCCCCCCCCCCCCCCC(O)C(N)CO (stereo unspecified) [SPHINGANINE]",
    "labelValue": 1
  },
  {
    "compound": "CC=CC=CC(=O)O [SORBATE]",
    "labelValue": 0
  },
  {
    "compound": "OCCc1c[nH]c2ccccc12 [INDOLE-3-ETHANOL]",
    "labelValue": 1
  },
  {
    "compound": "CCC=CCC1C(=O)CCC1CC(=O)OC (stereo unspecified) [METHYL JASMONATE]",
    "labelValue": 1
  }
]

# input LC retention time >= 7 min for CC12CCC(=O)C=C1CCC1C2C(=O)CC2(C)C1CCC2(O)C(=O)CO (stereo unspecified) [CORTISONE] ?
# output 1

# input Has O=c1cc[nH]c(=O)[nH]1 [URACIL] a recorded LC retention time greater than or equal to 7 min?
# output 0

# input In plain terms: is recorded LC retention time at least 7 min for O=c1[nH]c(=O)c2[nH]c(=O)[nH]c2[nH]1 [URATE] ?
# output 0

# input Please tell me: is the compound Cn1c(=O)c2c(ncn2C)n(C)c1=O [CAFFEINE] at or over 7 min in terms of LC retention time?
# output 1

# input Confirm if LC retention time reported for the compound CC1NC(=O)NC1CCCCCC(=O)O (stereo unspecified) [DETHIOBIOTIN] is 7 min or above.
# output 1

# input Could you tell me if the measured LC retention time of Cc1cc2nc3[nH]c(=O)[nH]c(=O)c3nc2cc1C [LUMICHROME] reaches 7 min or more?
# output 1

# input Does COc1ccc2[nH]cc(CCNC(C)=O)c2c1 [MELATONIN] have a reported LC retention time of at least 7 min?
# output 1

# input Hi team, for O=c1[nH]c(=O)c2[nH]cnc2[nH]1 [XANTHINE] , is the recorded LC retention time at or above 7 min?
# output 0

# input Please indicate if the recorded LC retention time for COC(=O)Cc1c[nH]c2ccccc12 [METHYL INDOLE-3-ACETATE] meets or exceeds 7 min.
# output 1

# input Is LC retention time for Nc1nc2c(ncn2C2OC3COP(=O)(O)OC3C2O)c(=O)[nH]1 (stereo unspecified) [GUANOSINE 3',5'-CYCLIC MONOPHOSPHATE] at or above 7 min?
# output 1

# input Item Cn1cnc2c(ncn2C2OC(CO)C(O)C2O)c1=N (stereo unspecified) [1-METHYLADENOSINE] with LC retention time of 7 min or above?
# output 1

# input Reported LC retention time reaches at least 7 min for CSCC1OC(n2cnc3c(N)ncnc32)C(O)C1O (stereo unspecified) [5'-METHYLTHIOADENOSINE] ?
# output 1

# input Is LC retention time at least 7 min? Consider CC12CCC(=O)C=C1CCC1C2C(O)CC2(C)C1CCC2(O)C(=O)CO (stereo unspecified) [CORTISOL]
# output 1

# input Please indicate if the recorded LC retention time for O=C(O)c1ccc(=O)[nH]c1 [6-HYDROXYNICOTINATE] meets or exceeds 7 min.
# output 0

# input For this compound, is measured LC retention time 7 min or higher? Nc1nc2nc[nH]c2c(=O)[nH]1 [GUANINE]
# output 0

# input Is reported LC retention time greater than or equal to 7 min here: NC(=O)Cc1c[nH]c2ccccc12 [INDOLE-3-ACETAMIDE]
# output 1
